experiment.summary: Cytotoxicity of 6-OHDA against SH-SY5Y cells, MTT assay
Assay type: cell-based
settings: human, SH-SY5Y neuronal cells, 6-OHDA, third of five concentrations 25–125 μM, relative to control, read-out: cell viability
measurement.name: viability at 24 h (%)
Could you give me the number in %? Just the number is fine.

# lookup: viability at 24 h of NCCc1cc(O)c(O)cc1O [6-OHDA, 6-hydroxydopamine]
61.6

* * *

System: 6-OHDA-induced SH-SY5Y neuronal cells
experiment.summary: Neuroprotection: cell viability of 6-OHDA-induced SH-SY5Y cells, MTT assay
Format: cell-based, Human
settings: pretreatment 5 μM 3 h, then 50 μM 6-OHDA 24 h
Experimental: Prior to investigations, 1.0 × 10^5 SH-SY5Y neuronal cells/mL were seeded into 96-well plates for 24 h. […] Cell viability was assessed by incubating with 5 mg/mL of MTT reagent for 3 h at 37 °C, followed by absorbance measurement at 570 nm using a microplate reader (Thermo Fisher Scientific Inc., MA, USA). The viability of SH-SY5Y cells at each concentration was analyzed as a percentage relative to the control group.
Listed here: items and their measured cell viability of 6-OHDA-induced cells.
Could you give me the number in %? Just the number is fine.

Illustrative cases are given below, each with its answer.
Cc1ccc(OCc2cn(-c3ccc(S(=O)(=O)NCCc4ccccc4)cc3)nn2)cc1: 89.25
Cc1ccccc1OCc1cn(-c2ccc(S(=O)(=O)N3CCc4ccccc4C3)cc2)nn1: 84.03
O=[N+]([O-])c1ccc(OCc2cn(-c3ccc(S(=O)(=O)NCCc4ccccc4)cc3)nn2)cc1: 85.48
Cc1ccccc1OCc1cn(-c2ccc(S(=O)(=O)NCCc3ccccc3)cc2)nn1: 90.88
Oc1ccc(/C=C/c2cc(O)cc(O)c2)cc1 [Resveratrol, reference compound]: 92.06

# lookup: cell viability of 6-OHDA-induced cells of `O=Cc1ccc(OCc2cn(-c3ccc(S(=O)(=O)NCCc4ccccc4)cc3)nn2)cc1`
87.69

# lookup: cell viability of 6-OHDA-induced cells of `O=Cc1ccc(OCc2cn(-c3ccc(S(=O)(=O)N4CCc5ccccc5C4)cc3)nn2)cc1`
90.41

Reference source: paper PMC12242667
